Give Bliss excess for every item shown.
tested on: EFO-21 (Ovarian Carcinoma); assay: Bliss excess, mean over the matrix (fraction); higher = more synergy
I'd appreciate a reply containing only the number, no unit.

Task: Please look up its Bliss excess: NC1(C(=O)N[C@@H](CCO)c2ccc(Cl)cc2)CCN(c2ncnc3[nH]ccc23)CC1 [Capivasertib] + Cn1cnc2c(F)c(Nc3ccc(Br)cc3Cl)c(C(=O)NOCCO)cc21 [Selumetinib] (first compound max 10 µM, 7x7, partner max 10 µM)
Result: -0.0352

Task: Let us now turn to COc1cccc(OCCCN)c1-c1cc(Nc2cnc(C#N)cn2)n[nH]1 [Prexasertib] + Cc1cc2ncnn2cc1Nc1ncc2c(n1)n(C1CCOCC1)c(=O)n2C [AZD7648] (first compound max 1 µM, 7x7, partner max 10 µM)
Result: -0.0446

Task: Let us now turn to CN(C)CCCOc1ccc(-c2ccc3ncc4c(c3c2)n(C2CCOCC2)c(=O)n4C)cn1 [AZD0156] + C[C@@H]1COCCN1C2=NC(=NC(=C2)C3(CC3)[S@](=N)(=O)C)C4=C5C=CNC5=NC=C4 [AZD6738] (first compound max 1 µM, 7x7, partner max 10 µM)
Result: -0.0206

Task: Let us now turn to COc1cccc(OCCCN)c1-c1cc(Nc2cnc(C#N)cn2)n[nH]1 [Prexasertib] + O=C(c1cc(Cc2n[nH]c(=O)c3ccccc23)ccc1F)N1CCN(C(=O)C2CC2)CC1 [Olaparib] (first compound max 1 µM, 7x7, partner max 10 µM)
Result: -0.1

====

tested on: OE33 (Esophageal Adenocarcinoma); assay: combination Emax (second highest fraction inhibited in the dose matrix, 72 h); higher = more inhibition; extreme values may be limits of the assay
measure_name: combination Emax
I'd appreciate a reply containing only the number, no unit.

Task: Entry CN(CCO)CC[C@H](CSc1ccccc1)Nc1ccc(S(=O)(=O)NC(=O)c2ccc(N3CCC([C@@H](O)c4ccccc4-c4ccc(Cl)cc4)CC3)cc2)cc1S(=O)(=O)C(F)(F)F [AZD4320] + CN(C)CCCOc1ccc(-c2ccc3ncc4c(c3c2)n(C2CCOCC2)c(=O)n4C)cn1 [AZD0156] (first compound max 1 µM, 7x7, partner max 1 µM) , system OE33 (Esophageal Adenocarcinoma): what combination Emax was measured?
Result: 0.0749

Task: Let us now turn to COc1cccc(OCCCN)c1-c1cc(Nc2cnc(C#N)cn2)n[nH]1 [Prexasertib] + Cc1cc2ncnn2cc1Nc1ncc2c(n1)n(C1CCOCC1)c(=O)n2C [AZD7648] (first compound max 1 µM, 7x7, partner max 10 µM)
Result: 0.823

Task: Let us now turn to CC(=O)Nc1cccc(-n2c(=O)n(C3CC3)c(=O)c3c(Nc4ccc(I)cc4F)n(C)c(=O)c(C)c32)c1 [Trametinib] + Cc1nc(-c2cn3c(n2)-c2ccc(-c4cnn(C(C)(C)C(N)=O)c4)cc2OCC3)n(C(C)C)n1 [Taselisib] (first compound max 1 µM, 7x7, partner max 10 µM)
Result: 0.84

====

Give Bliss excess for every item shown.
tested on: NCI-H2122 (Lung Adenocarcinoma); test: Bliss excess, mean over the matrix (fraction); higher = more synergy

Task: Please look up its Bliss excess: CN(CCO)CC[C@H](CSc1ccccc1)Nc1ccc(S(=O)(=O)NC(=O)c2ccc(N3CCC([C@@H](O)c4ccccc4-c4ccc(Cl)cc4)CC3)cc2)cc1S(=O)(=O)C(F)(F)F [AZD4320] + C[C@@H](Nc1cc(F)cc(F)c1)c1cc(C(=O)N(C)C)cc2c(=O)cc(N3CCOCC3)oc12 [AZD8186] (first compound max 1 µM, 7x7, partner max 3 µM)
Result: 0

Task: Let us now turn to COc1cccc(OCCCN)c1-c1cc(Nc2cnc(C#N)cn2)n[nH]1 [Prexasertib] + Cc1cc2ncnn2cc1Nc1ncc2c(n1)n(C1CCOCC1)c(=O)n2C [AZD7648] (first compound max 1 µM, 7x7, partner max 10 µM)
Result: -0.0289

Task: Let us now turn to CN(CCO)CC[C@H](CSc1ccccc1)Nc1ccc(S(=O)(=O)NC(=O)c2ccc(N3CCC([C@@H](O)c4ccccc4-c4ccc(Cl)cc4)CC3)cc2)cc1S(=O)(=O)C(F)(F)F [AZD4320] + Cc1cc2ncnn2cc1Nc1ncc2c(n1)n(C1CCOCC1)c(=O)n2C [AZD7648] (first compound max 1 µM, 7x7, partner max 10 µM)
Result: -0.0074

Task: Let us now turn to CCc1c2c(nc3ccc(O)cc13)-c1cc3c(c(=O)n1C2)COC(=O)[C@]3(O)CC [SN-38] + CN(C)CCCOc1ccc(-c2ccc3ncc4c(c3c2)n(C2CCOCC2)c(=O)n4C)cn1 [AZD0156] (first compound max 0.3 µM, 7x7, partner max 1 µM)
Result: 0.151

====

test system: ML-2 (Acute Myeloid Leukemia); test: combination Emax (second highest fraction inhibited in the dose matrix, 72 h); higher = more inhibition; extreme values may be limits of the assay
measure_name: combination Emax
I'd appreciate a reply containing only the number, no unit.

Task: Entry CCN(CCO)CCCOc1ccc2c(Nc3cc(CC(=O)Nc4cccc(F)c4)[nH]n3)ncnc2c1 [AZD2811] + C=CCn1c(=O)c2cnc(Nc3ccc(N4CCN(C)CC4)cc3)nc2n1-c1cccc(C(C)(C)O)n1 [AZD1775] (first compound max 1 µM, partner max 1 µM) , system ML-2 (Acute Myeloid Leukemia): what combination Emax was measured?
Result: 1

Task: Let us now turn to CN(C)CCCOc1ccc(-c2ccc3ncc4c(c3c2)n(C2CCOCC2)c(=O)n4C)cn1 [AZD0156] + CCN(CCO)CCCOc1ccc2c(Nc3cc(CC(=O)Nc4cccc(F)c4)[nH]n3)ncnc2c1 [AZD2811] (first compound max 1 µM, 7x7, partner max 1 µM)
Result: 0.878

Task: Let us now turn to C=CCn1c(=O)c2cnc(Nc3ccc(N4CCN(C)CC4)cc3)nc2n1-c1cccc(C(C)(C)O)n1 [AZD1775] + O=C(c1cc(Cc2n[nH]c(=O)c3ccccc23)ccc1F)N1CCN(C(=O)C2CC2)CC1 [Olaparib] (first compound max 1 µM, partner max 10 µM)
Result: 1

Task: Let us now turn to C=CCn1c(=O)c2cnc(Nc3ccc(N4CCN(C)CC4)cc3)nc2n1-c1cccc(C(C)(C)O)n1 [AZD1775] + C[C@@H]1COCCN1C2=NC(=NC(=C2)C3(CC3)[S@](=N)(=O)C)C4=C5C=CNC5=NC=C4 [AZD6738] (first compound max 1 µM, partner max 10 µM)
Result: 1

Task: Let us now turn to Cc1cc2ncnn2cc1Nc1ncc2c(n1)n(C1CCOCC1)c(=O)n2C [AZD7648] + C=CCn1c(=O)c2cnc(Nc3ccc(N4CCN(C)CC4)cc3)nc2n1-c1cccc(C(C)(C)O)n1 [AZD1775] (first compound max 10 µM, partner max 1 µM)
Result: 1

Task: Let us now turn to NC1(C(=O)N[C@@H](CCO)c2ccc(Cl)cc2)CCN(c2ncnc3[nH]ccc23)CC1 [Capivasertib] + CC(C)n1c(=O)n(C)c2cnc3cc(F)c(-c4ccc(OCCCN5CCCCC5)nc4)cc3c21 [AZD1390] (first compound max 10 µM, 7x7, partner max 0.3 µM)
Result: 0.71

Task: Let us now turn to NC1(C(=O)N[C@@H](CCO)c2ccc(Cl)cc2)CCN(c2ncnc3[nH]ccc23)CC1 [Capivasertib] + COc1nnc2ccc(N3CCC(c4ccc(OCCN5CCN(C)C(=O)[C@H]5C)cc4)CC3)nn12 [AZD5153] (first compound max 10 µM, 7x7, partner max 1 µM)
Result: 0.997

Task: Let us now turn to CN(CCO)CC[C@H](CSc1ccccc1)Nc1ccc(S(=O)(=O)NC(=O)c2ccc(N3CCC([C@@H](O)c4ccccc4-c4ccc(Cl)cc4)CC3)cc2)cc1S(=O)(=O)C(F)(F)F [AZD4320] + Cn1cnc2c(F)c(Nc3ccc(Br)cc3Cl)c(C(=O)NOCCO)cc21 [Selumetinib] (first compound max 1 µM, 7x7, partner max 3 µM)
Result: 1

Task: Let us now turn to Cc1c2c(nn1C)CSCc1cc(n(C)n1)CSc1cc(c3ccccc3c1)OCCCc1c(C(=O)O)n(C)c3c-2c(Cl)ccc13 [AZD5991] + C[C@@H](Nc1cc(F)cc(F)c1)c1cc(C(=O)N(C)C)cc2c(=O)cc(N3CCOCC3)oc12 [AZD8186] (first compound max 1 µM, 7x7, partner max 3 µM)
Result: 1

Task: Let us now turn to CN(C)CCCOc1ccc(-c2ccc3ncc4c(c3c2)n(C2CCOCC2)c(=O)n4C)cn1 [AZD0156] + C=CCn1c(=O)c2cnc(Nc3ccc(N4CCN(C)CC4)cc3)nc2n1-c1cccc(C(C)(C)O)n1 [AZD1775] (first compound max 1 µM, partner max 1 µM)
Result: 1

Task: Let us now turn to C[C@@H](c1ccc2nccn2c1)n1nnc2ncc(-c3cnn(C)c3)nc21 [Savolitinib] + CC1(C)CCC(CN2CCN(c3ccc(C(=O)NS(=O)(=O)c4ccc(NCC5CCOCC5)c([N+](=O)[O-])c4)c(Oc4cnc5[nH]ccc5c4)c3)CC2)=C(c2ccc(Cl)cc2)C1 [Venetoclax] (first compound max 1 µM, 7x7, partner max 1 µM)
Result: 0.46

Task: Let us now turn to CN(CCO)CC[C@H](CSc1ccccc1)Nc1ccc(S(=O)(=O)NC(=O)c2ccc(N3CCC([C@@H](O)c4ccccc4-c4ccc(Cl)cc4)CC3)cc2)cc1S(=O)(=O)C(F)(F)F [AZD4320] + Nc1ccn([C@@H]2O[C@H](CO)[C@@H](O)C2(F)F)c(=O)n1 [Gemcitabine] (first compound max 1 µM, 7x7, partner max 0.3 µM)
Result: 1

Task: Let us now turn to CC1(C)CCC(CN2CCN(c3ccc(C(=O)NS(=O)(=O)c4ccc(NCC5CCOCC5)c([N+](=O)[O-])c4)c(Oc4cnc5[nH]ccc5c4)c3)CC2)=C(c2ccc(Cl)cc2)C1 [Venetoclax] + COc1cc(Nc2ncc3c(n2)-c2ccc(Cl)cc2C(c2c(F)cccc2OC)=NC3)ccc1C(=O)O [Alisertib] (first compound max 1 µM, 7x7, partner max 10 µM)
Result: 0.988
